Item-by-item account of GI50
# Test system: UO-31
# run_description: NCI tumour cell line growth inhibition, 48 h
Calls of active or inactive are those of the source. Rule as the data show it: active = GI50 up to about 1.1 µM and inactive = higher.
measured_endpoint: GI50

molecule: Oc1c(OCc2nnc(CCCCCCCCc3nnc(COc4ccc5ccccc5c4O)o3)o2)ccc2ccccc12
measured_endpoint: GI50
result: 59.6 µM (inactive)

molecule: CCCOc1ccc(/C=C/C2=[N+](CCO)CCO2)cc1
measured_endpoint: GI50
result: > 100 µM (inactive)

molecule: COP(=N[Si](C)(C)C)(OC)OC
measured_endpoint: GI50
result: > 100 µM (inactive)

molecule: [O-][S+](Nc1ccccc1)c1ccc(Cl)c(Cl)c1 (stereo not given)
measured_endpoint: GI50
result: 52 µM (inactive)

molecule: CC1(C)CC(=O)c2c(nc(SSc3nc4c(c(-c5ccc(Br)cc5)c3C#N)C(=O)CC(C)(C)C4)c(C#N)c2-c2ccc(Br)cc2)C1
measured_endpoint: GI50
result: > 10 µM (inactive)

###

# System: UACC-62
# run_description: NCI tumour cell line growth inhibition, 48 h
Calls of active or inactive are those of the source. No stated cut-off is given here; in the data, active = GI50 up to about 1.1 µM and inactive = higher. Residues, ends and D or L forms follow the SMILES beside them. *: point of attachment. Ethyl(2-NMe3+) = C[N+](C)(C)CC*; Boc = CC(C)(C)OC(=O)*
Item-by-item account of GI50

compound: O=C(O)c1cn2c3c(cc(N4CCN(CCO)CC4)cc3c1=O)SCC2
GI50: > 78.2 µM (inactive)

compound: CN(C)C(=O)c1ccc([N+](=O)[O-])cc1
GI50: > 100 µM (inactive)

compound: C[C@]12CCC(=O)C[C@H]1CCC(O)[C@@H]2Br (some centres undefined)
GI50: > 100 µM (inactive)

compound: O=c1[nH]c2ccc(CC(=S)N3CCN(c4ccccc4)CC3)cc2o1
GI50: > 66.4 µM (inactive)

compound: CC(NC(=O)C(Cc1ccc(OCC[N+](C)(C)C)cc1)NC(=O)OC(C)(C)C)C(=O)NC(Cc1ccccc1)C(=O)NCC(N)=O (centres undefined) (Boc-Y(Ethyl(2-NMe3+))AFG-NH2; configuration not given here)
GI50: 25.9 µM (inactive)

compound: CC[C@@]1(O)C(=O)OCc2c1cc1n(c2=O)Cc2cc3c(N)cccc3nc2-1
GI50: < 0.0102 µM (active)

compound: Nc1ncnc2c1ncc(=O)n2C1CC(O)C(CO)O1 (centres undefined)
GI50: > 100 µM (inactive)

compound: CC(C)=CC1CC(=O)C1(C)Sc1ccccc1 (centres undefined)
GI50: > 100 µM (inactive)

compound: CN(C)c1nnnn1-c1c(N)n(C)c(=O)n(C)c1=O
GI50: > 100 µM (inactive)

compound: COc1ccc(C[C@H]2NC[C@H](OC(C)=O)[C@H]2OC(C)=O)cc1
GI50: 0.288 µM (active)

compound: N#CSc1ccc(S(N)(=O)=O)cc1
GI50: 70 µM (inactive)

compound: O=S(=O)(O)c1ccc(/N=N\c2ccc(/N=N\c3ccc(/C=C/c4ccc(/N=[N+](/[O-])c5ccc(/C=C/c6ccc(/N=N/c7ccc(/N=N\c8ccc(S(=O)(=O)O)cc8)cc7)cc6S(=O)(=O)O)c(S(=O)(=O)O)c5)cc4S(=O)(=O)O)c(S(=O)(=O)O)c3)cc2)cc1
GI50: > 100 µM (inactive)

compound: C[C@H](C1CC(C)(O)C(C)(O)C(O)O1)[C@H]1CC[C@H]2[C@@H]3[C@@H]4O[C@@H]4[C@@]4(O)CC=CC(=O)[C@]4(C)[C@H]3CC[C@]12C (some centres undefined)
GI50: > 50 µM (inactive)

compound: C/C(=C\COP(=O)(O)OP(=O)(O)O)CC/C=C(\C)CNc1ccccc1
GI50: > 50 µM (inactive)

compound: O=C(CC1C=Cc2ccccc2N1C(=O)c1ccccc1)c1ccccc1 (centres undefined)
GI50: 11.7 µM (inactive)

compound: COC(=O)c1ccccc1CC1Cc2c(C)ccc(C)c2C1=O (centres undefined)
GI50: 28.7 µM (inactive)

compound: c1cc2c(cc1NC1=NCCO1)OCO2
GI50: > 100 µM (inactive)

compound: C[C@]12CC[C@H]3[C@@H](CC=C4C[C@@H](N5CCCC5)CC[C@@]43C)[C@@H]1C[C@H](N1CCOCC1)[C@@H]2O
GI50: > 100 µM (inactive)

compound: CC1(C)C2CCC13C(=O)C1OC3(C2)C2C(=O)N(c3ccccc3)C(=O)C12 (centres undefined)
GI50: > 100 µM (inactive)

compound: CC1=NN(c2ccccc2)C(=O)/C1=C1\SC(c2ccccc2)(c2ccccc2)c2ccccc21
GI50: > 100 µM (inactive)

compound: N#CCCN(CCC#N)c1ccc(/C=C2\N=C(COc3ccc(Cl)cc3Cl)OC2=O)cc1
GI50: > 100 µM (inactive)

compound: Cc1cc(O)c(C(C)C)cc1SC#N
GI50: 14.6 µM (inactive)

compound: Oc1c(OCc2nnc(CCCCCCCCc3nnc(COc4ccc5ccccc5c4O)o3)o2)ccc2ccccc12
GI50: > 100 µM (inactive)

compound: N#C/C(=C\c1ccc(O)c(O)c1)c1c(C#N)c(N)nn1-c1ccccc1
GI50: 3.81 µM (inactive)

compound: NC(N)=NCc1ccc2c(c1)OCO2
GI50: > 100 µM (inactive)

compound: CCOC(=O)[C@H]1Nc2ccc(Cl)cc2[C@H]2c3ccccc3O[C@H]21
GI50: 41.8 µM (inactive)

compound: FC(F)(F)c1n[nH]c(SCc2ccc(Cl)cc2)n1
GI50: > 100 µM (inactive)

compound: Cc1ccc(S(=O)(=O)OCC23CCC(C2)C2CC23)cc1 (centres undefined)
GI50: > 100 µM (inactive)

compound: CCCCCC/C=C1\CCC(CN2CCCC2)C1=O (centres undefined)
GI50: 18.2 µM (inactive)

compound: COC(=O)CCC1=CCC2(SC)C(=O)Nc3cccc1c32 (centres undefined)
GI50: > 100 µM (inactive)

compound: CCCOc1ccc(/C=C/C2=[N+](CCO)CCO2)cc1
GI50: > 100 µM (inactive)

compound: ClC(Cl)(Cl)C1=N[C@H]2[C@H](Br)[C@@H]3O[C@@H](c4ccccc4)[C@H](c4ccccc4)O[C@@H]3[C@H]2O1
GI50: 16.3 µM (inactive)

compound: C/C(C=O)=N\Nc1cc(C)c2ccccc2n1
GI50: 14.7 µM (inactive)

compound: N#C[BH2-][n+]1ccc(C(=O)NNCC(F)(F)F)cc1
GI50: > 100 µM (inactive)

compound: CCN1C[C@]2(C)CC[C@H](O)C34C1C(C[C@@H]32)[C@@]1(O)CC[C@H]2C[C@@H]4[C@@H]1[C@H]2O
GI50: > 100 µM (inactive)

compound: CC1=NN(c2ccccc2Cl)C2(C1)SCC(=O)N2c1nc2ccccc2s1 (centres undefined)
GI50: > 100 µM (inactive)

compound: COCCCNC(=O)C1C(=O)N(CCCOC)C(=O)/C1=N\N (centres undefined)
GI50: > 100 µM (inactive)

compound: O=C(OCc1ccccc1C1CSCSC1)c1cc(C(=O)OCc2ccccc2C2CSCSC2)c(C(=O)OCc2ccccc2C2CSCSC2)cc1C(=O)OCc1ccccc1C1CSCSC1
GI50: > 100 µM (inactive)

compound: O=C1/C(=C/c2ccc(Cl)cc2)N=C(c2ccccc2)N1c1nc2c(Cl)cc(Cl)cc2s1
GI50: 28.4 µM (inactive)
